- Test system: LXRa homodimer (NR concentration 270 nM)
- assay overview: PBM binding z-score (relative to random genomic background probes); higher = stronger binding; sequences stand for … in GC…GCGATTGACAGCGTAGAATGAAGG
property: PBM binding z-score
Number, no unit, nothing else.

Example cases with answers are listed next.
> print(dat)
                         sequence.data  reported.value
 1  CCTATTAGTTGACCATAAAGGCAACCGAAGCTCG           0.992
 2  CGTCCAAGGTCAGCAGGTCTGTGAAAGCGACGTG          -0.272
 3  CCTGCTAGCTCAATGGTCAGCTAAAGCAGCTCGC          -0.571
 4  AGTCAAAGTTCATCTAGGTAACGTCAGATATGCT            5.62
 5  CATACAGGGTCAGGTAGGCCAGAGTAGGGACGGC          -0.133
 6  CGTCCAAGGGCAAGGTCAGTGAAAGAGACTCGAA          -0.119
 7  CCTACTGGGCCCAGGTCATTGATCAGTCAAAGCA           0.696
 8  CCTTACGGGTCAAAGTTATAGCACGGGTGGTACG           0.182
 9  CCAGACAAGTGAGAAGGTAACTCAGCCTCGATTA           0.265
10  AGAATGAGGTTATGATCAGGGAAACAGAATACAT         -0.0293

In plain terms, CTCGAAAGGTCGGTTGAGGTGAGTTTACGGATAA has a documented PBM binding z-score of 0.32

In plain terms, AATACAGGGTCACTAGGGCAGAGTAGGTACGAAT has a documented PBM binding z-score of 1.38

In plain terms, ACTAGCAGGCCAAGTTTGGGTCACTCAAACAAAG has a documented PBM binding z-score of -0.339

In plain terms, CCGCGGAGGACAACAGGAGGTCAGAGCTGCCAGA has a documented PBM binding z-score of 1.98

In plain terms, CATAGAGGGTCAGCTAGGCCAGAGTAGGGACGGC has a documented PBM binding z-score of -0.237

In plain terms, GGAACGAGGGCATTCGAGTTGATATCATGGCGAT has a documented PBM binding z-score of -0.497

In plain terms, TCTATTAGTTGATTAGGGCTACCGAAACAGCGGA has a documented PBM binding z-score of -0.0589

In plain terms, ACAGACAGGTGATGAAGGTACCTCAGGCTATCAT has a documented PBM binding z-score of -0.266

----------
- Test system: RARb:RXRa (NR concentration 270 nM, RXRa partner concentration 90 nM)
- assay overview: PBM binding z-score (relative to random genomic background probes); higher = stronger binding; sequences stand for … in GC…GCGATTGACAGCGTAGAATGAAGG
property: PBM binding z-score
Number, no unit, nothing else.

> print(dat)
                        sequence.data  reported.value
1  CGTCCAAGGTCAGAGAGGTCAGTGCATGCCGAGT            5.17
2  AGTCAGAGTTCAGGACGAGGTAACGTAAAGCACG            3.62
3  CTACCAAGGTGAACAAGGTAGTTGATTACTATTC            1.53
4  TCTATTAGTTGAAGGGTAACCGACGAGTCCGTTT            0.96
5  GTACCAAGTTGAATAGGTCGTTGATGAGTAGGCG           0.926
6  GGTCGGAGGACAAGGTCAGAGCTTTGTCCGTAGA            3.62

// next entry
In plain terms, AGTCAAAGATCAGGACGAGGTAACGTAAAGCACG has a documented PBM binding z-score of 0.247
